# SYSTEM_NAME: human PD-L1 (huPD-L1), on stably transduced CHO cells (human) (UniProt Q9NZQ7)
# Sequence (Q9NZQ7 19-290): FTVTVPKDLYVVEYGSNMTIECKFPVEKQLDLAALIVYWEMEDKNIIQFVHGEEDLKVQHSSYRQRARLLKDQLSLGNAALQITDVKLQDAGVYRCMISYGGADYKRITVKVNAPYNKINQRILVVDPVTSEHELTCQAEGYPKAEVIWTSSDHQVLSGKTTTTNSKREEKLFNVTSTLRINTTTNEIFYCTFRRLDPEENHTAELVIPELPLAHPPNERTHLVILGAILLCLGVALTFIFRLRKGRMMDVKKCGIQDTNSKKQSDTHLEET
# METHOD_SUMMARY: flow cytometry on CHO/huPD-L1 cells; MFI relative to WT CD80 (CD80 WT IgV-Fc = 1.0)
Classify: rule met when Fold change to WT CD80 is strictly less than 70 fold; rule not met when Fold change to WT CD80 is not.

Worked set:
{"BINDER": "variant CD80 IgV-Fc D46V/M47I/A71G (Fc fusion) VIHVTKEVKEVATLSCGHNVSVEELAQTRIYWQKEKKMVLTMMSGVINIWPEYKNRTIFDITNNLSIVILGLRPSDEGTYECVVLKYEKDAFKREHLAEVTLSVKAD", "ASSIGNED_CLASS": "rule not met"}
{"BINDER": "variant CD80 IgV-Fc E35D/D46E/M47I (Fc fusion) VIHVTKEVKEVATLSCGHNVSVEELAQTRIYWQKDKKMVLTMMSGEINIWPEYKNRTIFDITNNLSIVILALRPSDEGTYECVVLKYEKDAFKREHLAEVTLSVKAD", "ASSIGNED_CLASS": "rule met"}
{"BINDER": "variant CD80 IgV-Fc E35D/M47V (Fc fusion) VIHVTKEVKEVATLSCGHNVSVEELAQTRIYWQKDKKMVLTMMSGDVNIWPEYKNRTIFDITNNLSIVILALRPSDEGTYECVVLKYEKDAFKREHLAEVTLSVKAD", "ASSIGNED_CLASS": "rule met"}
{"BINDER": "variant CD80 IgV-Fc H18Y/E35D/M47L/A71G/A91S (Fc fusion) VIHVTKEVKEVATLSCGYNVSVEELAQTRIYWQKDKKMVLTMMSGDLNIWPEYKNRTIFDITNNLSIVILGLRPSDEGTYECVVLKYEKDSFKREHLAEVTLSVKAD", "ASSIGNED_CLASS": "rule not met"}
{"BINDER": "variant CD80 IgV-Fc E35D/D46E (Fc fusion) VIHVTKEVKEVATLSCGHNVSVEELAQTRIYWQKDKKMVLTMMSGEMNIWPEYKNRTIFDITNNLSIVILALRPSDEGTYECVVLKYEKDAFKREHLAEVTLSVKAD", "ASSIGNED_CLASS": "rule met"}

Exam item: Strictly below 70 fold in Fold change to WT CD80? variant CD80 IgV-Fc M47I/A71G (Fc fusion) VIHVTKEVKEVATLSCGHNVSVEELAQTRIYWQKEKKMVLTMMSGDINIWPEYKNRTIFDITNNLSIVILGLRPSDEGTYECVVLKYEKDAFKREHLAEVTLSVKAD
Marked response: rule not met
